Test system: E. Coli
Assay: in vitro MIC in BHI broth, E. Coli
Assay type: cell-based
Conditions: Escherichia coli, E. Coli 470
ATTRIBUTE MEASURED: MIC (µg/mL)
Answers are plain numbers, in µg/mL.

# COMPOUND STRUCTURE, MIC (µg/mL)
data = [
    ("CC[C@H]1OC(=O)[C@H](C)[C@@H](O[C@H]2C[C@@](C)(O)[C@@H](O)[C@H](C)O2)[C@H](C)[C@@H](O[C@@H]2O[C@H](C)C[C@H](N(C)C)[C@H]2O)[C@](C)(O)C[C@@H](C)C(=O)[C@H](C)[C@@H](O)[C@H]1C", 3.12),
    ("CC[C@H]1OC(=O)[C@H](C)[C@@H](O[C@H]2C[C@@](C)(OC)[C@@H](O)[C@H](C)O2)[C@H](C)[C@@H](O[C@@H]2O[C@H](C)C[C@H](N(C)C)[C@H]2O)[C@](C)(O)C[C@@H](C)C(=O)[C@H](C)[C@@H](O)[C@]1(C)O", 1.56),
    ("CC[C@H]1OC(=O)[C@H](C)[C@@H](O[C@H]2C[C@@](C)(O)[C@@H](O)[C@H](C)O2)[C@H](C)[C@@H](O[C@@H]2O[C@H](C)C[C@H](N(C)C)[C@H]2O)[C@](C)(O)C[C@@H](C)CN(C)[C@H](C)[C@@H](O)[C@H]1C", 0.39),
]

Now for the molecule whose MIC we want.
In: Give the measured MIC of CC[C@H]1OC(=O)[C@H](C)[C@@H](O[C@H]2C[C@@](C)(OC)[C@@H](O)[C@H](C)O2)[C@H](C)[C@@H](O[C@@H]2O[C@H](C)C[C@H](N(C)C)[C@H]2O)[C@](C)(O)C[C@@H](C)CN(C)[C@H](C)[C@@H](O)[C@]1(C)O .
Out: 0.78

Data origin, for the record: patent US4465674A
